inhibition at 1 µM for assorted molecules
- tested system: UniProt:Q9H422
- Sequence (Q9H422 whole entry): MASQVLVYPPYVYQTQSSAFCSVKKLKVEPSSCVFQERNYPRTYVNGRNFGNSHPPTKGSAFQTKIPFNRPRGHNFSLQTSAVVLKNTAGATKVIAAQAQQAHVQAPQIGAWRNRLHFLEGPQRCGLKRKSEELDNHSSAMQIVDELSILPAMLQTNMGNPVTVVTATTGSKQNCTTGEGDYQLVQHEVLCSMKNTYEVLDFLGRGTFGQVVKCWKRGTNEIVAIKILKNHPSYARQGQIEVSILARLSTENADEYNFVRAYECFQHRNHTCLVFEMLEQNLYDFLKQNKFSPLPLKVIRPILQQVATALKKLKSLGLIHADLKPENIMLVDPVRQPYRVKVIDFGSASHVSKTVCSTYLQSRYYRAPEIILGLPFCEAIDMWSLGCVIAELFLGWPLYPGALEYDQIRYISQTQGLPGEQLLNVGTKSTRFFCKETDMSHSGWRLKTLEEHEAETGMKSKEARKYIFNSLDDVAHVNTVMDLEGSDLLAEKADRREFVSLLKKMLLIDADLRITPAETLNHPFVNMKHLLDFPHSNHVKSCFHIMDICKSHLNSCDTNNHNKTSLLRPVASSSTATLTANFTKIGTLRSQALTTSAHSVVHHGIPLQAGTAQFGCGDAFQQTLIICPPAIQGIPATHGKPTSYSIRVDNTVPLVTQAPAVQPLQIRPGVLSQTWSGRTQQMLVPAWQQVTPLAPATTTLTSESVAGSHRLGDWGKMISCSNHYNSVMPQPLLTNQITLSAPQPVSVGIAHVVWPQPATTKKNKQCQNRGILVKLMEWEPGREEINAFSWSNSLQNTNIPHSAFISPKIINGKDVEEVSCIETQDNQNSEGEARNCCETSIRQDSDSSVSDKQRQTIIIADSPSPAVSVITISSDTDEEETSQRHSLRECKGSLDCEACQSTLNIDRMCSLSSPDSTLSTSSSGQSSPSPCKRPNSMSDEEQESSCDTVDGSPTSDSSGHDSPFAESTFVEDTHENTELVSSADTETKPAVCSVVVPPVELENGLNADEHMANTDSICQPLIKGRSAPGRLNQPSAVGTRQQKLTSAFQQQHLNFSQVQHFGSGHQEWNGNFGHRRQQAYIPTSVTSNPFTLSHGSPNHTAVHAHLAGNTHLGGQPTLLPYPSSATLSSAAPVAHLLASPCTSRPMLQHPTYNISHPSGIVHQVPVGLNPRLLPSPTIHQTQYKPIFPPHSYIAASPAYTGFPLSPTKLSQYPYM
- assay comment: Kinase panel profiling at 1 µmol/L (MSA or IMAP), percentage inhibition
- Type: biochemical
- stated conditions: kinase HIPK3; 1 µmol/L single concentration; read-out: %-inhibition at 1 µmol/L, HIPK3
Output spec: scalar in %, unitless text.

Recorded inhibition at 1 µM, per entry:
molecule	assay readout	readout value
CCc1nc(C(N)=O)c(Nc2ccc(N3CCC(N4CCN(C)CC4)CC3)c(OC)c2)nc1NC1CCOCC1 [gilteritinib]	inhibition at 1 µM	66
COC(=O)N[C@@H](C)CNc1nccc(-c2cn(C(C)C)nc2-c2cc(Cl)cc(NS(C)(=O)=O)c2F)n1 [encorafenib]	inhibition at 1 µM	5.63
Cn1cnc2c(F)c(Nc3ccc(Br)cc3Cl)c(C(=O)NOCCO)cc21 [selumetinib]	inhibition at 1 µM	3

Query: If you can, please state the reported inhibition at 1 µM value of CCN1C(=O)N(c2c(F)c(OC)cc(OC)c2F)Cc2cnc3[nH]c(CN4CCOCC4)cc3c21 [pemigatinib] .
Result: 0.456
